Please provide measured Ki for the entries that follow.
- study_target: 5-hydroxytryptamine receptor 1D (Homo sapiens, UniProt P28221)
- Sequence (P28221 whole entry): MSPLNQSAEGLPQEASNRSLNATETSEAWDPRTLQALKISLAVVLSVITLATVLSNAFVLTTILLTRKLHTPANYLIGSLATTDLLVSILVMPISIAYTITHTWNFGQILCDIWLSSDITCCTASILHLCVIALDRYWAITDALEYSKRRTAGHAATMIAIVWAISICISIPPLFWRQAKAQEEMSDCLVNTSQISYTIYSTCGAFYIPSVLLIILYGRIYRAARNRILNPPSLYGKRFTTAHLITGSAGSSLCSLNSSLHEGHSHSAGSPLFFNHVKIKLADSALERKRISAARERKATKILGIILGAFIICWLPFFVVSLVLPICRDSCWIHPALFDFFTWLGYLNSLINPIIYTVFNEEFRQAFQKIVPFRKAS
- experiment_summary: Binding affinity to recombinant human 5-hydroxytryptamine 1D receptor alpha
Give bare numbers, in nM.

> print(dat)
                                   compound  unit.of.measure  reported
1  NCCc1c[nH]c2ccc(OCCCCCC(=O)N3CCN(c4ccc([N+](=O)[O-])cc4)CC3)cc12               nM      0.34
2  NCCc1c[nH]c2ccc(OCC(=O)N3CCN(c4ccc(NC(=O)c5ccccc5)cc4)CC3)cc12               nM       1.7

// for each compound in input: emit Ki
1. NCCc1c[nH]c2ccc(OCC(=O)N3CCN(c4ccc([N+](=O)[O-])cc4)CC3)cc12
2. NCCc1c[nH]c2ccc(OCCCCC(=O)N3CCN(c4ccc(N)cc4)CC3)cc12
3. CS(=O)(=O)Nc1ccc(N2CCN(C(=O)COc3ccc4[nH]cc(CCN)c4c3)CC2)cc1
4. NCCc1c[nH]c2ccc(OCC(=O)N3CCN(c4ccc(CN)cc4)CC3)cc12
5. NCCc1c[nH]c2ccc(OCCCCCC(=O)N3CCN(c4ccc(N)cc4)CC3)cc12
6. CN(C)CCc1c[nH]c2ccc(C[C@H]3COC(=O)N3)cc12 [ZOLMITRIPTAN]
7. NCCc1c[nH]c2ccc(OCCCC(=O)N3CCN(c4ccc([N+](=O)[O-])cc4)CC3)cc12

0.42
1.4
0.56
0.93
0.38
0.92
1.2

* * *

Please provide measured log10 Ki for the entries that follow.
- study_target: 5-hydroxytryptamine receptor 1D (Homo sapiens)
- experiment_summary: Binding affinity to recombinant human 5-hydroxytryptamine 1D receptor alpha
Annotation: log10 of Ki, nM basis.

Use these answered entries as a reference point.
> print(dat)
                           smiles.structure                              study.target    metric  reported
1  NCCc1c[nH]c2ccc(OCCCCC(=O)N3CCN(c4ccc([N+](=O)[O-])cc4)CC3)cc12  5-hydroxytryptamine receptor 1D (Homo sapiens)  log10 Ki      0.40
2  CS(=O)(=O)NCc1ccccc1N1CCN(C(=O)COc2ccc3[nH]cc(CCN)c3c2)CC1  5-hydroxytryptamine receptor 1D (Homo sapiens)  log10 Ki      0.26
3  NCCc1c[nH]c2ccc(OCC(=O)N3CCN(c4ccccc4[N+](=O)[O-])CC3)cc12  5-hydroxytryptamine receptor 1D (Homo sapiens)  log10 Ki     -0.24

// for each compound in input: emit log10 Ki
1. NCCc1c[nH]c2ccc(OCC(=O)N3CCN(c4ccccc4CN)CC3)cc12
2. NCCc1c[nH]c2ccc(OCC(=O)N3CCN(c4ccc(N)cc4)CC3)cc12

[0.84, 0.47]

* * *

- study_target: UniProtKB P28221
- experiment_summary: Binding affinity to recombinant human 5-hydroxytryptamine 1D receptor alpha
metric: Ki (nM)
Answers are plain numbers, in nM.

Use these answered entries as a reference point.
> print(dat)
                           smiles.structure  reported
1  N#Cc1ccccc1N1CCN(C(=O)COc2ccc3[nH]cc(CCN)c3c2)CC1      0.92
2  CN(C)S(=O)(=O)Nc1ccc(N2CCN(C(=O)COc3ccc4[nH]cc(CCN)c4c3)CC2)cc1.Cl.O      0.26
3  CS(=O)(=O)NCc1ccc(N2CCN(C(=O)COc3ccc4[nH]cc(CCN)c4c3)CC2)cc1         1

Below: the item to evaluate.
Quick check: Ki of NCCc1c[nH]c2ccc(OCC(=O)N3CCN(c4ccccc4)CC3)cc12 ? 1.2
